tested on: KB-3-1; test: Cytotoxic Profiling of Annotated Libraries Using Quantitative High-Throughput Screening (AID 1296008); settings: Five cell lines viability, CellTiter-Glo ATP luminescence, 48-72 h; active compounds read low; further: on the % scale 0 is the no-effect control and ±100 the full control effect; nearly all actives have a fitted effect of over 60% in size
Inconclusive results are not listed.
# key: entry, value: max response
property_measured: max response (%)

| molecule | property_measured | readout_unit | observed_value |
| --- | --- | --- | --- |
| COc1cc(/C=C/CO)ccc1O[C@@H]1O[C@H](CO)[C@@H](O)[C@H](O)[C@H]1O | max response | % | 9.42 |
| O=C(O[C@H]1[C@@H]2C=CO[C@@H](O[C@@H]3O[C@H](CO)[C@@H](O)[C@H](O)[C@H]3O)[C@@H]2[C@@]2(CO)O[C@@H]12)c1ccc(O)c(O)c1 | max response | % | 4.32 |
| CC(C)(C)c1cc(CN2CCN(CC(O)c3ccc(Cl)cc3)CC2)cc(C(C)(C)C)c1O (centres undefined) | max response | % | -8.12 |
| C=C1CC[C@H]2[C@@](C)(CCC(O)[C@@]2(C)CO)[C@@H]1C/C=C(/C(=O)O)C(O)CO (some centres undefined) | max response | % | 7.71 |

---

Test system: CRL-7250
Test: Cytotoxic Profiling of Annotated Libraries Using Quantitative High-Throughput Screening (AID 1296008); further: on the % scale 0 is the no-effect control and ±100 the full control effect; nearly all actives have a fitted effect of over 60% in size
Details: Five cell lines viability, CellTiter-Glo ATP luminescence, 48-72 h; active compounds read low
Description: Cell-based phenotypic screening is a commonly used approach to discover biological pathways, novel drug targets, chemical probes and high-quality hit-to-lead molecules. […] A pintool (Kalypsys) was used to transfer 23 nL of compound solution to the 1536-well assay plates. […] Plates were left at room temperature for 10 min before imaging the ATP-coupled luminescence using a ViewLux microplate imager (PerkinElmer, Waltham, MA).
Results filed as inconclusive are left out.

| molecule | max response, % |
| --- | --- |
| CC(=O)OCC(=O)O[C@@H]1[C@H]2[C@@H](OC(=O)c3ccccc3)[C@@H](C)C[C@]2(O)[C@H](OC(C)=O)C2(C)[C@H]3CC(C)(C)C(=O)[C@@H]3CC1(OC(C)=O)[C@@H]2OC(C)=O (stereo partly drawn) | -0.187 |
| CC1CCC2(O1)C(C)(C)CC(O[C@@H]1O[C@H](CO[C@@H]3OC[C@](O)(CO)[C@H]3O)[C@@H](O)[C@H](O)[C@H]1O)CC2(C)O (stereo partly drawn) | -0.207 |
| CC(=O)N[C@H]1CCN(c2ccc(C3=NOC(CN[S+](=O)([O-])C(C)C)C3)cc2F)C1 (stereo partly drawn) | 3.89 |
| COC(=O)[C@@]1(C)CC[C@]2(C(=O)O[C@@H]3O[C@H](CO)[C@@H](O)[C@H](O)[C@H]3O)CC[C@]3(C)C(=CCC4[C@@]5(C)CC[C@H](O[C@@H]6O[C@H](C(=O)O)[C@@H](O)[C@H](O)[C@H]6O)C(C)(C)C5CC[C@]43C)[C@@H]2C1 (stereo partly drawn) | -18.2 |
| CC(=O)OCCC(C)CCC1C(C)(O)CCC2C(C)(C)CCCC21C (stereo not drawn) | -8.91 |
| CC(=O)O[C@@H]1[C@H](O[C@@H]2O[C@H](CO)[C@@H](O)[C@H](O)[C@H]2O)[C@@H](O[C@@H]2O[C@@H](C)[C@H](O)[C@@H](O[C@@H]3O[C@H](CO)[C@@H](O)[C@H](O)[C@H]3O)[C@H]2O)[C@H](OC(=O)C23CCC4(C)C(=CCC5C6(C)CC(O)C(O[C@@H]7O[C@H](C(=O)O)[C@@H](O)[C@H](O)[C@H]7O)C(C)(C(=O)O)C6CCC54C)C2CC(C)(C)CC3O)O[C@@H]1C (stereo partly drawn) | -7.88 |
| N#CC1C(=O)Nc2scc(-c3ccc(-c4ccccc4O)cc3)c2C1=O (stereo not drawn) | -4.61 |
| CC(=O)O[C@H]1C[C@@H]2[C@]3(CC[C@]4(C)[C@@H](C5(C)CCC(C(C)(C)O)O5)[C@@H](O)C[C@@]24C)C[C@@]32CC[C@H](O[C@@H]3OC[C@@H](O)[C@H](O)[C@H]3O)C(C)(C)[C@H]12 (stereo partly drawn) | 4.65 |
| CC(C)CNC(=O)/C=C/CCCCc1ccc2c(c1)OCO2 | -4.34 |
| NCc1c[nH]c(=S)n1C1CCc2c(F)cc(F)cc2C1 (stereo not drawn) | -1.6 |
| C/C=C(\C)C(=O)O[C@@H](C)[C@H]1CC[C@]2(O)C3CCC4C[C@@H](OC5CC(OC)C(OC6CC(OC)C(OC7CC(OC)C(OC8OC(C)C(OC9OC(CO)C(O)C(O)C9O)C(OC)C8O)C(C)O7)C(C)O6)C(C)O5)CC[C@]4(C)C3[C@H](O)[C@@H](O)[C@]12C (stereo partly drawn) | -8.84 |
| CC(/C=C/C1(O)C(C)CC(O)CC1(C)C)OC1OC(CO)C(O)C(O)C1O (stereo not drawn) | 1.42 |
| CC(NC(=O)CC(=O)O)c1nc2ccccc2c(=O)[nH]1 (stereo not drawn) | -1.93 |

---

assay: Primary fluorescence-based thiol-reactive (MSTI) qHTS assay for identification of artifact compounds. (AID 1845221); details: MSTI thiol-reactivity probe, 1 h; series mostly up to 53.8 µM; further: nearly all actives have a fitted effect of over 65% in size
Records with an inconclusive call do not appear. Calls of active or inactive are those of the source. Calls come from the whole dose curve; as a rule, active = well fitted inhibition curve with a large enough effect; inconclusive = small, poorly fitted or top-dose-only effect; inactive = no such curve, though single readings can be large or run the other way.
Outcome codes: active, inactive

| compound | class |
| --- | --- |
| CC1(C)CC[C@]2(C(=O)O)CC[C@]3(C)C(=CCC4[C@@]5(C)C[C@H](O)[C@H](O[C@@H]6OC[C@H](O)[C@H](O)[C@H]6O)[C@@](C)(CO)C5CC[C@]43C)[C@@H]2C1 (some centres undefined) | inactive |
| CC1CC(O)C2(C)C(C(=O)O)=CCCC2C1(C)CCc1ccoc1 (centres undefined) | inactive |
| CC1=C2[C@@H]([C@H](C)CC[C@H]2/C=C(\C)C(=O)O)[C@H](O)C1 | inactive |
| C=C1CCC(OC(C)=O)C2(C)CC3(O)OC(=O)C(C)=C3CC12 (centres undefined) | inactive |
| CC(C#N)C(C)O[C@@H]1O[C@H](CO)[C@@H](O)[C@H](O)[C@H]1O (some centres undefined) | active |
| C=C1CCC2C(C)(C)C(O)CCC2(C)C1CCC(C)CCOC(=O)CCC(=O)O (centres undefined) | inactive |
| COc1cc(C2c3cc(O)c(OC)cc3CC(CO)C2CO)ccc1O (centres undefined) | active |
| CC(=O)c1c(O)cc2c(c1C)C(=O)CC(O)C2 (centres undefined) | active |
| O=C(/C=C/c1ccc(O)cc1)OCC1=CC2OC(=O)C3=CO[C@@H](O[C@@H]4O[C@H](CO)[C@@H](O)[C@H](O)[C@H]4O)[C@H]1[C@@H]32 (some centres undefined) | inactive |

---

tested on: HEK293T; test: qHTS assay to identify novel small-molecules to repurpose for Merkel cell carcinoma treatment (AID 1296009); settings: MCC and control cell lines, CellTiter-Glo viability, 72 h; series mostly up to 44.8 µM; further: nearly all actives have a fitted effect of over 60% in size
Results filed as inconclusive are left out. Calls of active or inactive are those of the source. Calls come from the whole dose curve; as a rule, active = well fitted inhibition curve with a large enough effect; inconclusive = small, poorly fitted or top-dose-only effect; inactive = flat fitted curve, though single readings scatter.
property_measured: outcome

| molecule | observed_value |
| --- | --- |
| CC(C)CC(=O)n1cc(C(N)=O)c(=O)cc1C(O)c1ccccc1 (centres undefined) | inactive |
| C[C@@H]1O[C@@H](O[C@H]2[C@H](OC(=O)[C@]34CCC(C)(C)C[C@H]3C3=CCC5[C@@]6(C)C[C@H](O)[C@H](O[C@@H]7O[C@H](CO)[C@@H](O[C@@H]8O[C@H](CO)[C@@H](O)[C@H](O)[C@H]8O)[C@H](O)[C@H]7O)[C@@](C)(CO)C6[C@H](O)C[C@@]5(C)[C@]3(C)C[C@H]4O)OC[C@H](O)[C@@H]2O)[C@H](O)[C@H](O)[C@H]1O[C@@H]1OC[C@@H](O)[C@H](O[C@@H]2OC[C@](O)(CO)[C@H]2O)[C@H]1O (some centres undefined) | inactive [at 9.27 µM] |
| Cc1cn2c(N)c(Cl)cc(C(=O)NCC3CCN(CC(C)C)CC3)c2n1 | inactive |
| CC1=CC[C@]2(C(=O)O[C@@H]3O[C@H](CO[C@@H]4O[C@H](CO)[C@@H](O[C@@H]5O[C@@H](C)[C@H](O)[C@@H](O)[C@H]5O)[C@H](O)[C@H]4O)[C@@H](O)[C@H](O)[C@H]3O)CC[C@]3(C)C(CCC4[C@@]5(C)C[C@@H](O)[C@H](O)[C@@](C)(CO)C5CC[C@]43C)C2C1C (some centres undefined) | inactive [at 9.27 µM] |

---

Assay: NFAT Signaling Pathway (AID 444);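 further: carbachol stimulus at about its EC50 of 1 µM final; on the % scale 0 is the no-effect control and ±100 the full control effect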
Conditions: Jurkat NFAT-bla M1, carbachol, beta-lactamase ratio, 5 h; at 17.2 µM (top of the series)
Procedure: NCGC Assay Overview: The nuclear factor of activated T cells (NFAT) family of transcription factors has been found primarily in most immune system cells and some other non-immune cells. NFAT plays the immunomodulatory role, primarily in T-cell activation and differentiation. […] NCGC Assay Protocol Summary: The cells were prepared in RPMI 1640 medium containing 0.1% dialyzed FBS and 25 mM HEPES at 1.6 x 10^6cell/ml. […] The %Activity was determined from the ratio of 460nm/530nm. […]
Records with an inconclusive call do not appear. Active and inactive are the calls of the source. The call rests on the fitted dose curve; in most records, active means well fitted curve in either direction with a large enough effect (not every such curve was filed as active); inconclusive means small, poorly fitted or top-dose-only effect, or another doubt; inactive means flat fitted curve, though single readings scatter. Peptide text beside a SMILES is read from it.
Outcome codes: true for active, false for inactive

| compound | class |
| --- | --- |
| CC(C)N=c1cc2n(-c3ccc(Cl)cc3)c3ccccc3nc-2cc1Nc1ccc(Cl)cc1 | true |
| CCCC(=O)O[C@]1(C(=O)COC(C)=O)CC[C@H]2[C@@H]3C[C@H](F)C4=CC(=O)C=C[C@]4(C)[C@@]3(F)[C@@H](O)C[C@@]21C | false |
| Cc1c(C)c2c(c(C)c1O)CC[C@@](C)(CCC[C@@H](C)CCC[C@@H](C)CCCC(C)C)O2 | false |
| Cc1onc(-c2ccccc2)c1C(=O)N[C@@H]1C(=O)N2[C@@H]1SC(C)(C)[C@@H]2C(=O)O | false |
| CC(=O)N[C@@H](CC(=O)O)C(=O)N[C@@H](CCC(=O)O)C(=O)O (Ac-Asp-Glu-OH) | false |
| CC1(C)S[C@@H]2[C@H](NC(=O)[C@@H](NC(=O)N3CCNC3=O)c3ccccc3)C(=O)N2[C@H]1C(=O)O | false |
